I'd be grateful if you could share measured Cmax for these entries.
experiment: Pharmacokinetics in male SD rats (cassette dosing, IV and PO), plasma level by LC/MS/MS; type: in vivo; settings: male SD rat, PO 5 mg/kg oral gavage

Write down Cmax measured for item CN1C(=O)Cc2cc(C(=O)Nc3cc(-c4cccs4)ccc3N)ccc21
6950 to 7000 ng/mL

Write down Cmax measured for item Nc1ccc(-c2cccs2)cc1NC(=O)c1ccc2c(c1)ncn2CCN1CCOCC1
5250 to 5300 ng/mL

Write down Cmax measured for item Nc1ccc(-c2cccs2)cc1NC(=O)c1ccc2[nH]cnc2c1
5550 to 5600 ng/mL

Write down Cmax measured for item Nc1ccc(-c2ccccc2)cc1NC(=O)c1ccc2c(c1)CC(=O)N2CCN1CCOCC1
1900 to 1950 ng/mL

Write down Cmax measured for item Nc1ccc(-c2ccccc2)cc1NC(=O)c1ccc2c(c1)CC(=O)N2CC1CC1
2450 to 2500 ng/mL

Write down Cmax measured for item CN1C(=O)Cc2cc(C(=O)Nc3cc(-c4ccccc4)ccc3N)ccc21
8200 to 8250 ng/mL

Write down Cmax measured for item Nc1ccc(-c2cccs2)cc1NC(=O)c1ccc2[nH]c(C3CC3)nc2c1
4150 to 4200 ng/mL

Write down Cmax measured for item Nc1ccc(-c2cccs2)cc1NC(=O)c1ccc2c(c1)CC(=O)N2CCN1CCOCC1
950 to 1000 ng/mL

Write down Cmax measured for item Nc1ccc(-c2cccs2)cc1NC(=O)c1ccc2c(c1)CC(=O)N2CC1CC1
700 to 750 ng/mL

Write down Cmax measured for item Nc1ccc(-c2cccs2)cc1NC(=O)c1ccc2c(c1)CC(=O)N2
3500 to 3550 ng/mL
